Cited source: paper PMC9940855

biological target: hCA VII (Homo sapiens); details: read-out: KI hCA VII; stopped-flow CO2 hydrase assay; mean from three different assays, errors ±5–10%
Sequence (P43166 whole entry): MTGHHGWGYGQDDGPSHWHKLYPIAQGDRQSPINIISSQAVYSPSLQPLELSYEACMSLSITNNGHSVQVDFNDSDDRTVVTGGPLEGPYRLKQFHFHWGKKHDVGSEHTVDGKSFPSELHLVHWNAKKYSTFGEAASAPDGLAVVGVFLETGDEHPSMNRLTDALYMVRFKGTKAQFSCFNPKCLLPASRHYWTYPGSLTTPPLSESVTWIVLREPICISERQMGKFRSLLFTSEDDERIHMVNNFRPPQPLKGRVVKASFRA
pKi: −log10 of the molar value.
assay_endpoint: pKi

Some solved entries appear below for comparison.
Query (compound): NS(=O)(=O)c1ccc(N2CC[C@@H](NC(=O)Nc3cc(C(F)(F)F)cc(C(F)(F)F)c3)C2)nc1 [16a] ; field requested: pKi
7.39

Query (compound): NS(=O)(=O)c1ccc(NC(=S)N[C@H]2CCN(c3cccc([N+](=O)[O-])n3)C2)cc1 [37b] ; field requested: pKi
8.11

P: NS(=O)(=O)c1ccc(N2CC[C@@H](NC(=O)Nc3ccc(Cl)c(C(F)(F)F)c3)C2)nc1 [10a]
Q: NS(=O)(=O)c1ccc(N2CC[C@H](NC(=O)Nc3ccc4c(c3)OCCO4)C2)nc1 [15b]
Between P and Q , which one has the lower reported pKi value? Mark your answer with the label of the selected entry.
P
(P: 7.10, Q: 7.53)

A: NS(=O)(=O)c1ccc(N2CC[C@@H](NC(=S)Nc3ccc(F)cc3)C2)nc1
B: NS(=O)(=O)c1ccc(N2CC[C@@H](NC(=O)NS(=O)(=O)c3ccccc3Cl)C2)nc1 [25a]
Could you kindly indicate whether A or B has the higher pKi value? Mark your answer with the label of the selected entry.
A
(A: 8.07, B: 7.52)
